Just for reference, PubChem BioAssay (NCI) is where these values come from.

system: BT-549 breast; experiment: NCI tumour cell line growth inhibition, 48 h
# TGI listing for each entry below

Known TGI results, listed for orientation:
molecule | measurementType | result
COc1cc(/C=N/Nc2ncnc3c2cnn3Cc2ccccc2)ccc1O | TGI | > 25 µM
CCCC(=O)Nc1ncnc2c1ncn2C1OC2COP(=O)(O)OC2C1OC(=O)CCC (stereo not given) | TGI | > 1000 µM
COc1cc(C2C(C(=O)OCc3ccccc3)=C(C)NC(C)=C2C(=O)OCc2ccccc2)cc(OC)c1OC | TGI | > 100 µM
CCC(C)C(NC(=O)c1c2ccccc2nc2ccccc12)C(=O)O (stereo not given) | TGI | 94.1 µM

Qu. Return reported TGI; argument: `Cc1ccc(S(=O)(=O)c2ccsc2NC(=O)c2ccccc2)cc1`
Ans. > 100 µM
